Assay overview: activity coefficient (dimensionless); of the first substance listed, at infinite dilution; xn = mol fraction of the nth substance listed
Assay context: 373.15 K; 101 kPa; Liquid; Chromatography; x1 = 0
Observed property: activity coefficient
Hey, just send me the number, nothing else.

response.value for C[C@H]1CC[C@H](C)CC1 [trans-1,4-dimethylcyclohexane] + CCCCCCCCCCCCCCCCCCC(CCCCCCCCCCCCCCCCCC)CCCCC(CCCCCCCCCCCCCCCCCC)CCCCCCCCCCCCCCCCCC (field: activity coefficient) = 0.288

Item: C=CCCCCCCCCCCCC [1-tetradecene] + CCCCCCCCCCCCCCCCCCC(CCCCCCCCCCCCCCCCCC)CCCCC(CCCCCCCCCCCCCCCCCC)CCCCCCCCCCCCCCCCCC | activity coefficient: 0.475

CCCCCCCCCCC [undecane] + CCCCCCCCCCCCCCCCCCC(CCCCCCCCCCCCCCCCCC)CCCCC(CCCCCCCCCCCCCCCCCC)CCCCCCCCCCCCCCCCCC has a reported activity coefficient of 0.436

For reference, reported activity coefficient for C[C@@H]1CCCC[C@@H]1C [cis-1,2-dimethylcyclohexane] + CCCCCCCCCCCCCCCCCCC(CCCCCCCCCCCCCCCCCC)CCCCC(CCCCCCCCCCCCCCCCCC)CCCCCCCCCCCCCCCCCC stands at 0.271

What the record says about C#CCCCCCC [1-octyne] + CCCCCCCCCCCCCCCCCCC(CCCCCCCCCCCCCCCCCC)CCCCC(CCCCCCCCCCCCCCCCCC)CCCCCCCCCCCCCCCCCC : activity coefficient is 0.428

Recorded activity coefficient (molecule c1ccccc1 [benzene] + CCCCCCCCCCCCCCCCCCC(CCCCCCCCCCCCCCCCCC)CCCCC(CCCCCCCCCCCCCCCCCC)CCCCCCCCCCCCCCCCCC ): 0.269
